System: S. aureus ATCC 13709
Assay: MIC, antibacterial potency, S. aureus
Assay type: cell-based
Details: S. aureus (SA); in µg/mL
Reported MIC, SA values for a set of molecules
Keep it simple and answer with nothing but the number.

{"columns": ["MOLECULE", "MIC, SA"],
 "data": [
  ["CCc1[nH]c2nc(Sc3cnc4nccnc4c3)nc(N3CC4CNC(C4)C3)c2c1Cl (centres unmarked)", 2],
  ["CCc1[nH]c2nc(Sc3cnc4cccnc4c3)nc(N3CCC(NCCN)C3)c2c1Cl (centres unmarked)", 2],
  ["CCc1[nH]c2nc(Sc3ccc4[nH]c(N)nc(=O)c4c3)nc(N3CC[C@@H](N)C3)c2c1Cl", 4],
  ["CCc1[nH]c2nc(Sc3ccc(C#N)nc3)nc(N3CC[C@@H](N)C3)c2c1Cl", 2],
  ["CCc1[nH]c2nc(Sc3ccc4c(N)n[nH]c4c3)nc(N3CC(N)C3)c2c1Cl", 64]
]}

Form field MIC, SA, entry CCc1[nH]c2nc(Sc3ccc4cc5c([n+]([O-])c4c3)CCNC5)nc(N3CC[C@@H](N)C3)c2c1Cl : 2

---

Reported MIC Spn52 values for a set of molecules
System: S. pneumoniae ATCC 51916
Assay: MIC, S. pneumoniae
Format: cell-based
Settings: S. pneumoniae
Number in µg/mL, nothing else.

{"columns": ["MOLECULE", "MIC Spn52 / µg/mL"],
 "data": [
  ["CCc1[nH]c2nc(Oc3cncnc3)nc(Oc3cncc(OC)c3)c2c1Cl.O=C(O)C(F)(F)F [700,648]", 2],
  ["CCc1[nH]c2nc(Sc3cnc4nccnc4c3)nc(N3CC(NS(=O)(=O)CC(F)(F)F)C3)c2c1Cl [700,436]", 1],
  ["CCc1[nH]c2nc(Sc3cnc4c(N)nc(N)nc4c3)nc(N3CC(O)C3)c2c1Cl.O=C(O)C(F)(F)F.O=C(O)C(F)(F)F [700,448]", 2],
  ["CCc1[nH]c2nc(Sc3ccc4c(N)ncnc4c3)nc(N3CC4CNC4C3)c2c1Cl (centres unmarked) [700,689]", 8]
]}

Form field MIC Spn52, entry CCOc1nc(Nc2cnc3c(cnn3C(C)C)c2)nc2[nH]c(CC)c(Cl)c12.O=C(O)C(F)(F)F [700,406] : 16

Form field MIC Spn52, entry CCc1[nH]c2nc(Sc3cncnc3)nc(N3CC(N)C3)c2c1Cl [700,574] : 16

Form field MIC Spn52, entry CCOc1ccc(Nc2nc(OCC)c3c(Br)c(CC)[nH]c3n2)cn1.O=C(O)C(F)(F)F [700,417] : 16

Form field MIC Spn52, entry CCc1[nH]c2nc(Sc3cnc4nccnc4c3)nc(N3CC4CNCC4C3)c2c1Cl.O=C(O)C(F)(F)F (centres unmarked) [700,565] : 4

---

Test system: S. pneumoniae ATCC 51916
Experiment: MIC, S. pneumoniae
Type: cell-based
Conditions: S. pneumoniae
PARAMETER: MIC Spn52 (µg/mL)
Number in µg/mL, nothing else.

Below: 4 molecules and their reported MIC Spn52.
{"columns": ["MOLECULE", "VAL"],
 "data": [
  ["CCc1[nH]c2nc(Sc3cnc4nccnc4c3)nc(N3CCC[C@@H](N)C3)c2c1Cl", 8],
  ["CCc1[nH]c2nc(Sc3cnc4nccnc4c3)nc(N3CC4CNC4C3)c2c1Cl.O=C(O)C(F)(F)F (centres unmarked)", 2],
  ["CCc1[nH]c2nc(Oc3cncc(OC)c3)nc(Oc3cncc(OC)c3)c2c1Cl.O=C(O)C(F)(F)F", 1],
  ["CCOc1nc(Oc2ccc3c(N)nc(C)nc3c2)nc2[nH]c(CC)c(Cl)c12.O=C(O)C(F)(F)F", 4]
]}

Form field MIC Spn52, entry CCc1[nH]c2nc(Oc3cncnc3)nc(Oc3cncnc3)c2c1Br.O=C(O)C(F)(F)F : 2

Form field MIC Spn52, entry CCc1[nH]c2nc(Sc3cnc(N4CC(O)C4)c(C#N)c3)nc(N3CCC(N)C3)c2c1Cl (centres unmarked) : 16

Form field MIC Spn52, entry CCc1[nH]c2nc(Sc3cc(=O)n(CCc4ccccc4)c(=O)[nH]3)nc(N3CC(O)C3)c2c1Br : 8

Form field MIC Spn52, entry CCc1[nH]c2nc(Cc3cccnc3)nc(Oc3cccnc3)c2c1Cl : 32

Form field MIC Spn52, entry CCc1[nH]c2nc(Sc3ccc4c(NCC(C)O)ncnc4c3)nc(N3CCC(N)C3)c2c1Cl (centres unmarked) : 16
